Assay: soluble on expression in E. coli; label from the status in PepcDB or PDB records
PROPERTY_MEASURED: soluble on expression in E. coli

CONSTRUCT_SEQUENCE: MGSDKIHHHHHHMLQLTQVRIWVITFKSYLRMNKNMIKGMIVFATIAEKGSMSAAAQQLNLSSSAVSQQVTKLEMDMGISLFHRNTRNLTLTEAGSLFYENCRKVISIVDSTEQKLNNLKGIPSGELKIAAPVGFGGGLLSEPFQYLLATHPQISLNLVMQDGPIDIVNDGIDLAICIGPLSDSNLIARHLADWRMLLCTSPDYLPMHHNIKHPSELAAFNRINHNYTKGELLTHHPSLECFELTGQRISVNNMQTLIQLTLDGLGYAALPEPEVLDYLDKGVLVPLLPEWSFNTYSVYSVTSARDRQPAKVKEALNALSQYFSQTDFNHADQLKGGSYQTEHIKSGKEHRLGT
MEASURED: not soluble

CONSTRUCT_SEQUENCE: MGSDKIHHHHHHMLIIKRSVAIIAILFSPLSTASNLTSQLHNFFSAQLAGVSDEVRVSIRTAPNLLPPCEQPLLSMSNNSRLWGNVNVLARCGNDKRYLQVNVQATGNYVVAAMPIARGGKLEAGNVKLKRGRLDTLPPRTVLDINQLVDAISLRDLSPDQPIQLTQFRQAWRVKAGQRVNVIASGDGFSANAEGQALNNAAVAQNARVRMVSGQVVSGVVDADGNILINL
MEASURED: not soluble

CONSTRUCT_SEQUENCE: MELKEGDEILNVAGPLGNPAPMEKFGKILAIGAYVGIAEVYPIAKAWQEIGNDVTTLHVTFEPMVILKDYFEKAVSRHIVEPVKIDQEKSFQENTKNVTKALTAKVKELLDNENWDLVFMVGPPGDQKAVFEVVKKYGIPMKVDLHPIMLEHHHHHH
MEASURED: not soluble

* * *

Assay: soluble on expression in E. coli; label from the status in PepcDB or PDB records

CONSTRUCT_SEQUENCE: MAHHHHHHMGTLEAQTQGPGSMREVLVPYAGVSPSVDSTAFIAGNARIIGDVCIGKNASIWYGTVLRGDVDKIEVGEGTNIQDNTVVHTDSMHGDTVIGKFVTIGHSCILHACTLGNNAFVGMGSIVMDRAVMEEGSMLAAGSLLTRGKIVKSGELWAGRPAKFLRMMTEEEILYLQKSAENYIALSRGYL
soluble on expression in E. coli: soluble
--
CONSTRUCT_SEQUENCE: GPGSMGSEESNNICAYKRTISLAKIYIVLLVKTAMLRYSRLCFPKMGCEEIKRKARRVQLQPTEYLAQHRMQVWQLRFKEMGPPFSRVWVALGGKMRRRRVGRQVDVKDMRYYWRPIEPQYQRLYMSRLRIRDHSNKLRQPMRLRATNADIGSGSSSIEWERASNRKYGAMLAPPKRQDFEFRVV
soluble on expression in E. coli: not soluble
--
CONSTRUCT_SEQUENCE: MSSLHKSRIADFQDVLKEPSIALEKLRELSFSGIPCEGGLRCLCWKILLNYLPLERASWTSILAKQRELYAQFLREMIIQPGIAKANMGVSREDVTFEDHPLNPNPDSRWNTYFKDNEVLLQIDKDVRRLCPDISFFQRATDYPCLLILDPQNEFETLRKRVEQTTLKSQTVARNRSGVTNQEQNIKPQFFAFRWLTLLLSQEFLLPDVTRIWDSLFADDNRFDFLLLVCCAMLMLIREQLLEGDFTVNMRLLQDYPITDVCQILQKAKELQDSK
soluble on expression in E. coli: soluble
--
CONSTRUCT_SEQUENCE: MGSDKIHHHHHHMKILHYIPSIDRTSGGVGTYMQLLTAELGKLVELHVVTHKETNPLELKNCHVHFIENNNPFLPKEKKNFIFLLNEIKPDVFHANCCWLPMSAYTAMWARNAGYHVVYTPHGMLEPWIMKRHYWTKKFPASLLFQKRGIQIANVIHATAESEKHNLTQLGWNNNIEVIPNCVEIDKITMKESWIRNKNILFLSRVHVKKGINFLIEATANLKTELQGYTINIAGEGEESYINELKQLASKLGVENLIHFIGGVYGDKKWELFKKADLFVLPTHSENFGIVVAEALACGTPVITTQGTPWQELESYHCGWWTEIGTEATTKALKEFLQCTETQLEQMGKNGRKLIEEKYSSQKVAQDMVELYKKVCL
soluble on expression in E. coli: not soluble
--
CONSTRUCT_SEQUENCE: MSLEIRRADKDDLDDFVRVYVESYRGLEDYAYTRKRDVKNYFKWLLSRDKDGVMVAEIDGEAVGFVACDTNWFSIFERKKVGEIHELFVLPEFRGEGIGAKLMEKALEYALERNRKVAELWVGRTNYRARRFYASQDLRRPESGGSGSEEGHHHHHH
soluble on expression in E. coli: not soluble
--
CONSTRUCT_SEQUENCE: MAHHHHHHMQLQPPKPIIKDFNVGISPLVQTRLPLVFAQGEYPPPMQDVLLVGISLKADFSAVWDWNTKHMYVACIGRYHTKSNMTVGGVNLQKTHDVTIFDKVLRSKEEAANWTLDNAKKYALENEELGSLAGAAVELMILYHPMRHYGYSPYYTVQPGKNPVMFQLPTAYEKRTEEDDKNAMCSRGYA
soluble on expression in E. coli: not soluble
--
CONSTRUCT_SEQUENCE: MGSDKIHHHHHHMLDKLWKKKNSMMVGIDIGSHSAKAVLLGQGNEGFIIEDFAIEPMPRGSVVDREIQDIEAVGAVIAKLRKKISAKATDAAAAVSGQTVITKLIYMDVALTEDELASQIEIEADSLIPFPLDEVSLDFETLDVNESDPSKVNVLLSAARTESIEARVAALDAGDFHAKVIDVESYAVGRAYDLCLTQLPDDAKDKVVAIVDIGSTVTLFSATDAGKHIYSRDQMFGGEQYTRSIVSYYNKSFEQAEEAKTSNDLPPNYTFEVLAPFHTVLMQQIRRAIQMFLTTSGQNKVDYLLISGGTAALEGIESLLTEELGIHTVIANPFNDMSCGESIEQAELANVAPQLMVATGLALRSFTPWHI
soluble on expression in E. coli: not soluble
--
CONSTRUCT_SEQUENCE: ADTRIGVTIYKYDDNFMSVVRKAIEKDGKSAPDVQLLMNDSQNDQSKQNDQIDVLLAKGVKALAINLVDPAAAGTVIEKARGQNVPVVFFNKEPSRKALDSYDKAYYVGTDSKESGVIQGDLIAKHWQANQGWDLNKDGKIQYVLLKGEPGHPDAEARTTYVVKELNDKGIQTEQLALDTAMWDTAQAKDKMDAWLSGPNANKIEVVIANNDAMAMGAVEALKAHNKSSIPVFGVDALPEALALVKSGAMAGTVLNDANNQAKATFDLAKNLAEGKGAADGTSWKIENKIVRVPYVGVDKDNLSEFTQK
soluble on expression in E. coli: soluble
--
CONSTRUCT_SEQUENCE: MQPSHPSQPSHADRAAPTSALAPVVPPVLAEVVRSGFVEGRHRGSLVVLGADGAVELALGEVTAPVFPRSSNKPMQAAGVLRAGLDLAGERLALAAASHSGEPFHRDLVRKMLDEYGLDPALLQCPPDLPLDAEERETYLASGAEPDRVTMNCSGKHTAMLAVCAQQGWPLETYLDPEHPLQRVIHRVVEDAAGEPVAAVGTDGCGAPLMAISLVGLARAFRSFVAAEPGSAERRVADAMRAHPEYVAGSRRADTWLMREVPGSLSKMGAEAVQAVALPDGRALAFKIEDGATRALGPVLARALTLLGVDAPVVGRIGRAPLLGGGREVGEIRASFLEHHHHHH
soluble on expression in E. coli: not soluble
--
CONSTRUCT_SEQUENCE: MSLQSADESTFDRIRRTKKLRIGAVAGGAPYYNKDLATGQWKGFYIDISKALADELECQLEITETTWGNSVLDLQANKIDIFFGLNPTPKRALVVDFSVPVFSNAFTMLTRKDFAPKTWAELNDPNVKIAVDVGSSHDQVVSRLCPKAQIVRLKTADEATMALVSGRVDAQCIILMLALTVRKKNPNVGQLLVPTPVFSTTSNAGFRRENDKTWRDYVNTWIEYNKGLGFIRSAIVTNMELVGVTEADMPAGIQEGHHHHHH
soluble on expression in E. coli: soluble
--
CONSTRUCT_SEQUENCE: MIDYTAAGFTLLQGAHLYAPEDRGICDVLVANGKIIAVASNIPSDIVPNCTVVDLSGQILCPGFIDQHVHLIGGGGEAGPTTRTPEVALSRLTEAGVTSVVGLLGTDSISRHPESLLAKTRALNEEGISAWMLTGAYHVPSRTITGSVEKDVAIIDRVIGVKCAISDHRSAAPDVYHLANMAAESRVGGLLGGKPGVTVFHMGDSKKALQPIYDLLENCDVPISKLLPTHVNRNVPLFEQALEFARKGGTIDITSSIDEPVAPAEGIARAVQAGIPLARVTLSSDGNGSQPFFDDEGNLTHIGVAGFETLLETVQVLVKDYDFSISDALRPLTSSVAGFLNLTGKGEILPGNDADLLVMTPELRIEQVYARGKLMVKDGKACVKGTFETA
soluble on expression in E. coli: soluble

This collection of values is drawn from the DeepSol protein solubility set.
